- Tested on: SR
- ASSAY: NCI tumour cell line growth inhibition, 48 h
Active and inactive are the calls of the source. Rule as the data show it: active = GI50 up to about 1.1 µM and inactive = higher.
Outcomes you can answer with include only these: active, inactive

For CC1OC(OC2C[C@](O)(C(=O)CF)Cc3c(O)c4c(c(O)c32)C(=O)c2ccccc2C4=O)CC(N)C1O (stereo partly specified) , what call appears in the results of this test?
active

For c1ccc(C(=NCCC2CNc3ccccc32)c2ccccc2)cc1 (stereo unspecified) , what call appears in the results of this test?
inactive

For `Cc1ccc2nnc(NS(=O)(=O)c3cc(C)c(Cl)cc3S)n2n1` , what call appears in the results of this test?
inactive

For COc1ccc(C(Nc2ncccn2)c2cc3c(cc2O)OCO3)cc1 (stereo unspecified) , what call appears in the results of this test?
inactive

For `O=C(/C=C(\Nc1ccccc1O)c1ccc(Br)cc1)C(Cl)(Cl)Cl` , what call appears in the results of this test?
inactive
